Published IC50 for UniProt:P10827, assembled from different documents, is shown next.
Biological target: UniProt:P10827
Sequence (P10827 whole entry): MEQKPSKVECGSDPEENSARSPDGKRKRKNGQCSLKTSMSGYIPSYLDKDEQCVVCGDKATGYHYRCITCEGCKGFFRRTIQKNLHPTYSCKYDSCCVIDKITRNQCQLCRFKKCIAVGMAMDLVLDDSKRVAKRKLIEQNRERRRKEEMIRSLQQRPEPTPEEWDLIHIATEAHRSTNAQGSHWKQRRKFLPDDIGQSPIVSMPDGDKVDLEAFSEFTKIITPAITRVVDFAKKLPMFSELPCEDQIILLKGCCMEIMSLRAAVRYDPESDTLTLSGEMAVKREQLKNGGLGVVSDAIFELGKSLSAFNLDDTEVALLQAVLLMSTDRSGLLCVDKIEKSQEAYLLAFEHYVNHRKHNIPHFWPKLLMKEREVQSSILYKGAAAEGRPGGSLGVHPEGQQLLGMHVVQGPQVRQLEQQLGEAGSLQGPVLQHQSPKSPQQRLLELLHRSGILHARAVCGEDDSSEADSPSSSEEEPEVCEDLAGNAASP
Value type: IC50 (nM)

{"Compound": "CCCCOc1c(Br)cc(CC(=O)O)cc1Br", "IC50 / nM": 26300}

[1] CC(C)c1cc(Oc2c(Br)cc(CC(=O)N[C@H](C(=O)O)C(C)C)cc2Br)cc(Cl)c1O
[2] CC(C)c1cc(Oc2c(Br)cc(CC(=O)N[C@H](C(=O)O)C(C)C)cc2Br)ccc1O
Between 1 and 2 , which one has the lower reported IC50 value? Your answer should be the label attached to the chosen record.
2

[1] CCCCCCc1ccc(C(=O)CCN(C)Cc2ccco2)cc1
[2] CCC(CC)C(=O)Nc1ccc(Oc2c(Cl)cc(CC(=O)O)cc2Cl)cc1Br
Which value of IC50 is greater, the one for 1 or the one for 2 ? Answer format: the label of the selected item.
1
(1: 22600 nM, 2: 610 nM)

[1] O=C(O)Cc1cc(Br)c(Oc2ccc(O)c(C(=O)NCc3ccccc3)c2)c(Br)c1
[2] CCC(C)C(=O)Nc1ccc(Oc2c(Cl)cc(CC(=O)O)cc2Cl)cc1Br (stereo unspecified)
Record comparison, field IC50: mark the lower of 1 and 2 . Your answer should be the label attached to the chosen record.
1
(1: 85.1 nM, 2: 240 nM)

[A] O=C(O)Cc1cc(Cl)c(Oc2ccc(O)c(-c3cccc(O)c3)c2)c(Cl)c1
[B] CC(C)c1cc(Oc2c(Br)cc(CC(=O)NCC(=O)O)cc2Br)ccc1O
// task: argmin of IC50 over [ A , B ] API: response body contains the label of the selected item.
B
